Hey, just so you know, these numbers are from patent US20260167721A1.

# test system: T1, recombinant human CD3 epsilon/gamma heterodimer (human, UniProt P07766 23-126; P09693 23-116)
# T1 construct: Recombinant heterodimer used as analyte in Octet; also called hCD3 E/G
# T1 sequence (P07766 23-126, chain 1 of 2): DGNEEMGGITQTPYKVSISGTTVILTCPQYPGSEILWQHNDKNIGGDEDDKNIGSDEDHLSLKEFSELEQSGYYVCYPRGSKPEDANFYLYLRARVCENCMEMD
# T1 sequence (P09693 23-116, chain 2 of 2): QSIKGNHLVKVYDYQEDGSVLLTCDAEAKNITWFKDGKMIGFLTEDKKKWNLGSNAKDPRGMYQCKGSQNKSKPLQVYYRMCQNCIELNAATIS
# procedure text: BLI (Octet), mAb 5 ug/mL on FAB2G sensor, hCD3 E/G 200-50 nM;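 note: antibodies purified from hybridoma supernatants, measured by Octet binding to recombinant human CD3 protein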
Measured koff accompanies every entry in the list below.

# binder, koff
data = [
    ("ABL-CD3-85 (antibody, V domains shown, mAb purified from hybridoma; chimeric AlivaMab IgG (human VH, CH1 and upper hinge; mouse middle hinge, CH2, CH3; human light chain)) VH: EVQLVESGGGLVKPGGSLRLSCAASGFTFSSYSMNWVRQAPGKGLEWVSSISRRSGYIYYADSVKGRFTLSRDNAKKSLYLQMNSLRAEDTAVYYCARDLNWAFDYWGQGTLVTVSS VL: NFMLTQPHSVSESPGKTVTISCTRSSGSIASNYVQWYQQRPGSSPTTVIYEDNHRPSGVPDRFSGSIDSSSNSASLTIAGLKTEDEADYYCQSCDSSNVVFGGGTKLTVL", "0.00608 s⁻¹"),
    ("ABL-CD3-87 (antibody, V domains shown, mAb purified from hybridoma; chimeric AlivaMab IgG (human VH, CH1 and upper hinge; mouse middle hinge, CH2, CH3; human light chain)) VH: EVQLVESGGGLVKFGGSLRLSCAASGFTFSRYSMNWVRQAPGKGLEWVSSISSSSSYKYYADSVKGRFTISRDNAKNSLYLQMNSLRAEDTAVYYCAREGGNSHGMDVWGQGTTVTVSS VL: NFMLTQPHSVSESPGKTVTISCTRSSGSIASNYVQWYQQRPGSSPTTVIYEDNQRPSGVPDRFSGSIDSSSNSASLTISGLKTEDEADYYCQSYDSSNRVFGGGTKLTVL", "0.0279 s⁻¹"),
    ("ABL-CD3-71 (antibody, V domains shown, mAb purified from hybridoma; chimeric AlivaMab IgG (human VH, CH1 and upper hinge; mouse middle hinge, CH2, CH3; human light chain)) VH: QVQLQESGPGLVKPSETLSLTCTVSGGSINSYYWSWIRQPAGKGLEWIGRIYTSGSTNYNPSLKSRVTMSVDTSKKQFSLKLSSVTAADTAVYYCARERISRLYFDYWGQGILVTVSS VL: NFMLTQPHSVSESPGKTVTISCTRSSGSIASNYVQWYQQRPGSSPTTVIYEDNQRPSGVPDRFSGSIDSSSNSASLTISGLKTEDEADYYCQSYDRSNRVFGGGTKLTVL", "0.0329 s⁻¹"),
]
